The values you see were collected from patent US6914045B2.

# Tested on: Staphylococcus sp.
# test_details: in vitro antibacterial evaluation, MIC by broth dilution
# Assay type: cell-based
# measurement_conditions: broth dilution, 18 hours at 35° C.; strain GC 3053
Numbered stars: 1 amine (or outer) side, 2 acyl side, 3 side chain; on linkers, the order of the positions; unused ones are H or OH. Square brackets hold non-standard residues; d marks the D form. Peptide text beside a SMILES is read from it. * marks the point of attachment. ξ: configuration not given here. X6 = N=C1NCC(CC(N[*:1])C(=O)[*:2])N1C1OC(CO)C(O)C(O)C1O; ξEnduracididine(βξ-OH,4'ξ) = N=C1NCC(C(O)C(N)C(=O)O)N1; X2 = OCC1OC(OC2C(CO)OC(*)C(O)C2O)C(O)C(O)C1O; ξPhe(βξ-Me) = CC(c1ccccc1)C(N)C(=O)O
experimental_readout: MIC Staphylococcus aureus (GC 3053)

# count of solved cases: 8
CC(c1ccccc1)C1NC(=O)CNC(=O)C(CO)NC(=O)C(C(O)C2CNC(=N)N2C2OC(CO)C(O)C(O)C2O)NC(=O)C(C(O)C2CNC(=N)N2)NC(=O)C(Cc2ccc(OC3OC(CO)C(OC4OC(COCc5ccc(Oc6ccccc6)cc5)C(O)C(O)C4O)C(O)C3O)cc2)NC1=O (stereo not drawn) = 2 µg/mL
CC(c1ccccc1)C1NC(=O)CNC(=O)C(CO)NC(=O)C(CC2CNC(=N)N2C2OC(CO)C(O)C(O)C2O)NC(=O)C(C(O)C2CNC(=N)N2)NC(=O)C(Cc2ccc(OC3OC(CO)C(OC4OC(CO)C(O)C(O)C4O)C(O)C3O)cc2)NC1=O (stereo not drawn) [Example 284b] (cyclo(G[ξPhe(βξ-Me)]Y(X2)[ξEnduracididine(βξ-OH,4'ξ)][X6]S); configuration not given here) = >128 µg/mL
COc1ccc(COCC2OC(OC3C(CO)OC(Oc4ccc(CC5NC(=O)C(C(C)c6ccccc6)NC(=O)CNC(=O)C(CO)NC(=O)C(C(O)C6CNC(=N)N6C6OC(CO)C(O)C(O)C6O)NC(=O)C(C(O)C6CNC(=N)N6)NC5=O)cc4)C(O)C3O)C(O)C(O)C2O)cc1F (stereo not drawn) = 4 µg/mL
CC(C)CC(=O)OC1C(OC2C(CO)OC(Oc3ccc(CC4NC(=O)C(C(C)c5ccccc5)NC(=O)CNC(=O)C(CO)NC(=O)C(CC5CNC(=N)N5C5OC(CO)C(O)C(O)C5O)NC(=O)C(CC5CNC(=N)N5)NC4=O)cc3)C(O)C2O)OC(CO)C(O)C1O (stereo not drawn) [Example 277b] = >64 µg/mL
CCC(CC)C1OCC2OC(OC3C(CO)OC(Oc4ccc(CC5NC(=O)C(C(C)c6ccccc6)NC(=O)CNC(=O)C(CO)NC(=O)C(C(O)C6CNC(=N)N6C6OC(CO)C(O)C(O)C6O)NC(=O)C(C(O)C6CNC(=N)N6)NC5=O)cc4)C(O)C3O)C(O)C(O)C2O1 (stereo not drawn) = 1 µg/mL
COc1ccc(Oc2cccc(C3OCC4OC(OC5C(CO)OC(Oc6ccc(CC7NC(=O)C(C(C)c8ccccc8)NC(=O)CNC(=O)C(CO)NC(=O)C(C(O)C8CNC(=N)N8C8OC(CO)C(O)C(O)C8O)NC(=O)C(C(O)C8CNC(=N)N8)NC7=O)cc6)C(O)C5O)C(O)C(O)C4O3)c2)cc1 (stereo not drawn) = 2 µg/mL
CC(c1ccccc1)C1NC(=O)CNC(=O)C(CO)NC(=O)C(C(O)C2CNC(=N)N2C2OC(CO)C(O)C(O)C2O)NC(=O)C(C(O)C2CNC(=N)N2)NC(=O)C(Cc2ccc(OC3OC(CO)C(OC4OC5COC(c6cccs6)OC5C(O)C4O)C(O)C3O)cc2)NC1=O (stereo not drawn) = 4 µg/mL
CC(c1ccccc1)C1NC(=O)CNC(=O)C(CO)NC(=O)C(CC2CNC(=N)N2C2OC(CO)C(O)C(O)C2O)NC(=O)C(CC2CNC(=N)N2)NC(=O)C(Cc2ccc(OC3OC(CO)C(OC4OC(CO)C(O)C(O)C4OCc4ccc(OCc5ccccc5)cc4)C(O)C3O)cc2)NC1=O (stereo not drawn) [Example 246c] = >128 µg/mL

# evaluate next
Ask: What measured MIC Staphylococcus aureus (GC 3053) is associated with CCOc1cc(C2OCC3OC(OC4C(CO)OC(Oc5ccc(CC6NC(=O)C(C(C)c7ccccc7)NC(=O)CNC(=O)C(CO)NC(=O)C(C(O)C7CNC(=N)N7C7OC(CO)C(O)C(O)C7O)NC(=O)C(C(O)C7CNC(=N)N7)NC6=O)cc5)C(O)C4O)C(O)C(O)C3O2)ccc1OC (stereo not drawn) on Staphylococcus sp.?
Result: 32 µg/mL
